experiment: Human plasma protein binding (ultracentrifugation or rapid equilibrium dialysis); type: in vitro ADME; settings: pH 7.4; RED with diluted human plasma (10% v/v), corrected for dilution; < values from LLOQ; read-out: fu (fraction unbound in plasma)
Overview of reported fraction unbound at 6 h across a group of compounds:

Solved entries:
1) CCCCN(CCCC)CCC(O)c1cc2c(Cl)cc(Cl)cc2c2cc(C(F)(F)F)ccc12 (stereo not shown) [Halofantrine, halofantrine] :: < 0.0001
2) OC(c1cc(C(F)(F)F)nc2c(C(F)(F)F)cccc12)C1CCCCN1 (stereo not shown) [Mefloquine, mefloquine] :: 0.015
3) O=C1C(O)=C([C@H]2CC[C@H](c3ccc(Cl)cc3)CC2)C(=O)c2ccccc21 [Atovaquone, atovaquone] :: < 0.0002

// next item, fraction unbound at 6 h requested
Query: fraction unbound at 6 h; subject: Clc1ccc2c(N3CCN(CCCN4CCN(c5ccnc6cc(Cl)ccc56)CC4)CC3)ccnc2c1 [Piperaquine, piperaquine] < 0.001

* * *

test: Human plasma protein binding (ultracentrifugation or rapid equilibrium dialysis); type: in vitro ADME; conditions: pH 7.4; neat human plasma, 37°C, concentration comparable to Caco-2 assay; read-out: fu (fraction unbound in plasma)
reported endpoint: fraction unbound

Solved entries:
1. CC(=O)Nc1ccc(O)cc1 :: 0.86
2. CC(C)NCC(O)COc1cccc2ccccc12 (stereo not drawn) :: 0.25
3. C[C@H]1O[C@@H](O[C@H]2[C@@H](O)C[C@H](O[C@H]3[C@@H](O)C[C@H](O[C@H]4CC[C@@]5(C)[C@H](CC[C@@H]6[C@@H]5C[C@@H](O)[C@]5(C)[C@@H](C7=CC(=O)OC7)CC[C@]65O)C4)O[C@@H]3C)O[C@@H]2C)C[C@H](O)[C@@H]1O [^3H-Digoxin, [^3H(G)]-digoxin] :: 0.61
4. CC(C)(C)NCC(O)COc1ccc(NC(=O)NC2CCCCC2)cc1 (stereo not drawn) :: 0.48

(A) CN/C(=N/CCSCc1nc[nH]c1C)NC#N
(B) CC(C)(C)NC(=O)[C@@H]1C[C@@H]2CCCC[C@@H]2CN1C[C@@H](O)[C@H](Cc1ccccc1)NC(=O)[C@H](CC(N)=O)NC(=O)c1ccc2ccccc2n1
Just tell me: smaller fraction unbound value, A or B ? // return label of chosen record B
(B: 0.04, A: 0.76)

* * *

system: Caco-2 cell monolayer; experiment: Caco-2 permeability assay with pH 7.4 buffer or human plasma in both chambers; details: human plasma in both chambers
reported endpoint: Mass balance A-B (%)

1. CNC(=C[N+](=O)[O-])NCCSCc1ccc(CN(C)C)o1 :: 92
2. CC(=O)Nc1ccc(O)cc1 :: 92
3. CCCCN(CCCC)CCC(O)c1cc2c(Cl)cc(Cl)cc2c2cc(C(F)(F)F)ccc12 (stereo not drawn) :: 83

* * *

assay: Caco-2 permeability assay with pH 7.4 buffer or human plasma in both chambers; conditions: human, Caco-2, pH 7.4, Papp A-B, human plasma in both chambers; corrected for fu in donor
reported endpoint: Papp A→B (×10⁻⁶ cm/s)

Solved entries:
1) COC(=O)c1ccccc1-c1c2ccc(=N)cc-2oc2cc(N)ccc12 :: 1.2
2) CNC(=C[N+](=O)[O-])NCCSCc1ccc(CN(C)C)o1 :: 2.1

(P) CC(=O)Nc1ccc(O)cc1
(Q) OC[C@@H](O)[C@@H](O)[C@H](O)[C@H](O)CO [^14C-Mannitol, D-[1-^14C]-mannitol]
(R) CC(C)(C)NC(=O)[C@@H]1C[C@@H]2CCCC[C@@H]2CN1C[C@@H](O)[C@H](Cc1ccccc1)NC(=O)[C@H](CC(N)=O)NC(=O)c1ccc2ccccc2n1
With regard to Papp A→B, arrange the entries in ascending order, please. Please write the labels in the order that was asked for. Q, R, P
(Q: 0.31 ×10⁻⁶ cm/s, R: 8.4 ×10⁻⁶ cm/s, P: 37 ×10⁻⁶ cm/s)

* * *

tested on: Caco-2 cell monolayer; assay: Caco-2 permeability assay with pH 7.4 buffer or human plasma in both chambers; conditions: buffer pH 7.4 in both chambers
reported endpoint: Mass balance B-A (%)

1) COC(=O)c1ccccc1-c1c2ccc(=N)cc-2oc2cc(N)ccc12 :: 99

(I) CCN(CC)Cc1cc(Nc2ccnc3cc(Cl)ccc23)ccc1O
(II) CC(C)(C)NC(=O)[C@@H]1C[C@@H]2CCCC[C@@H]2CN1C[C@@H](O)[C@H](Cc1ccccc1)NC(=O)[C@H](CC(N)=O)NC(=O)c1ccc2ccccc2n1
Just tell me: smaller Mass balance B-A value, I or II ? // return label of chosen record II
(II: 60%, I: 93%)

* * *

experiment: Caco-2 permeability assay with pH 7.4 buffer or human plasma in both chambers; settings: human, Caco-2, pH 7.4, Efflux ratio (B-A/A-B), buffer pH 7.4 in both chambers
reported endpoint: efflux ratio

Solved entries:
1. OC[C@@H](O)[C@@H](O)[C@H](O)[C@H](O)CO [^14C-Mannitol, D-[1-^14C]-mannitol] :: 1.9
2. OC(c1cc(C(F)(F)F)nc2c(C(F)(F)F)cccc12)C1CCCCN1 (stereo not shown) [Mefloquine, mefloquine] :: 2.2

(1) COC(=O)c1ccccc1-c1c2ccc(=N)cc-2oc2cc(N)ccc12 [Rhodamine 123, rhodamine 123]
(2) CCN(CC)Cc1cc(Nc2ccnc3cc(Cl)ccc23)ccc1O [Amodiaquine, amodiaquine]
Just tell me: smaller efflux ratio value, 1 or 2 ? // return label of chosen record 2

* * *

assay: in vitro; details: human, Caco-2, pH 7.4, Papp A-B
reported endpoint: Papp A→B (×10⁻⁶ cm/s)

1. COCCc1ccc(OCC(O)CNC(C)C)cc1 (stereo not drawn) :: 57

(I) CN/C(=N/CCSCc1nc[nH]c1C)NC#N
(II) CCN(CC)Cc1cc(Nc2ccnc3cc(Cl)ccc23)ccc1O
(III) OC(c1cc(C(F)(F)F)nc2c(C(F)(F)F)cccc12)C1CCCCN1 (stereo not drawn)
With regard to Papp A→B, arrange the entries in ascending order, please. Please write the labels in the order that was asked for. I, II, III

* * *

test system: P-gp; experiment: Caco-2 permeability assay with pH 7.4 buffer or human plasma in both chambers; details: human, Caco-2, pH 7.4, with verapamil 100 µM, Papp B-A, buffer; + 100 μM verapamil
reported endpoint: Papp B→A (×10⁻⁶ cm/s)
Please state the figure in ×10⁻⁶ cm/s; there is no need to write the unit.

Query: Papp B→A; subject: C[C@H]1O[C@@H](O[C@H]2[C@@H](O)C[C@H](O[C@H]3[C@@H](O)C[C@H](O[C@H]4CC[C@@]5(C)[C@H](CC[C@@H]6[C@@H]5C[C@@H](O)[C@]5(C)[C@@H](C7=CC(=O)OC7)CC[C@]65O)C4)O[C@@H]3C)O[C@@H]2C)C[C@H](O)[C@@H]1O [^3H-Digoxin, [^3H(G)]-digoxin] 5.8

* * *

experiment: Caco-2 permeability assay with pH 7.4 buffer or human plasma in both chambers; settings: human, Caco-2, pH 7.4, with verapamil 100 µM, Papp A-B, plasma; + 100 μM verapamil; corrected for fu
reported endpoint: Papp A→B (nm/s)
Please state the figure in nm/s; there is no need to write the unit.

Query: Papp A→B; subject: C[C@H]1O[C@@H](O[C@H]2[C@@H](O)C[C@H](O[C@H]3[C@@H](O)C[C@H](O[C@H]4CC[C@@]5(C)[C@H](CC[C@@H]6[C@@H]5C[C@@H](O)[C@]5(C)[C@@H](C7=CC(=O)OC7)CC[C@]65O)C4)O[C@@H]3C)O[C@@H]2C)C[C@H](O)[C@@H]1O [^3H-Digoxin, [^3H(G)]-digoxin] 62

* * *

system: P-gp; assay: Caco-2 permeability assay with pH 7.4 buffer or human plasma in both chambers; conditions: human, Caco-2, pH 7.4, with verapamil 100 µM, Papp B-A, plasma; + 100 μM verapamil; corrected for fu
reported endpoint: Papp B→A (×10⁻⁶ cm/s)
Please state the figure in ×10⁻⁶ cm/s; there is no need to write the unit.

Query: Papp B→A; subject: C[C@H]1O[C@@H](O[C@H]2[C@@H](O)C[C@H](O[C@H]3[C@@H](O)C[C@H](O[C@H]4CC[C@@]5(C)[C@H](CC[C@@H]6[C@@H]5C[C@@H](O)[C@]5(C)[C@@H](C7=CC(=O)OC7)CC[C@]65O)C4)O[C@@H]3C)O[C@@H]2C)C[C@H](O)[C@@H]1O [^3H-Digoxin, [^3H(G)]-digoxin] 7.4

* * *

assay: Caco-2 permeability assay with pH 7.4 buffer or human plasma in both chambers; details: human, Caco-2, pH 7.4
reported endpoint: Papp

Solved entries:
1) CCCCN(CCCC)CCC(O)c1cc2c(Cl)cc(Cl)cc2c2cc(C(F)(F)F)ccc12 (stereo not drawn) [Halofantrine, halofantrine] :: > 300 ×10⁻⁶ cm/s
2) O=C1C(O)=C([C@H]2CC[C@H](c3ccc(Cl)cc3)CC2)C(=O)c2ccccc21 [Atovaquone, atovaquone] :: > 300 ×10⁻⁶ cm/s

// next item, Papp requested
Query: Papp; subject: Clc1ccc2c(N3CCN(CCCN4CCN(c5ccnc6cc(Cl)ccc56)CC4)CC3)ccnc2c1 [Piperaquine, piperaquine] > 300 ×10⁻⁶ cm/s
